molecular target: PARP-1 F1+F2 (24-kDa DBD) (Homo sapiens, UniProt P09874 1-214); assay: fluorescence anisotropy; 75; 50 mM Tris-HCl pH 7.0, 150 uM ZnSO4, 4 mM DTT, 25 C; NaCl 0-200 mM (T2, as in cof; 10 nM DNA) or 25 mM (T3 mutants; 25 nM DNA); conditions: protein: recombinant; label: fluorescein-dT at T8; single-chain dumbbell, 18 bp with central nick, two tetraloops
Sequence (P09874 1-214): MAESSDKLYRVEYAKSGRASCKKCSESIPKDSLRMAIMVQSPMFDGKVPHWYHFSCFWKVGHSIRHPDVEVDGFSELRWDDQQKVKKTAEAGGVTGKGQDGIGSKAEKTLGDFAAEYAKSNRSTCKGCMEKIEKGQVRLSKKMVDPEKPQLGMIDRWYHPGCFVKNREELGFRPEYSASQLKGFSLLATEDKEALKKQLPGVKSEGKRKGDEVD
OBSERVABLE: Kd (nM)
Output spec: scalar in nM, unitless text.

What value of measured Kd is listed for CGGTCGATCGTAAGATCGACCGGCGCTGGAGCTTGCTCCAGCGC (structured_DNA, 5'-phosphate) [44-nt nicked dumbbell, 5'-phosphate, fluorescein-dT] ?
37
